target: GSK3alpha (h) (Homo sapiens)
Sequence (P49840 whole entry): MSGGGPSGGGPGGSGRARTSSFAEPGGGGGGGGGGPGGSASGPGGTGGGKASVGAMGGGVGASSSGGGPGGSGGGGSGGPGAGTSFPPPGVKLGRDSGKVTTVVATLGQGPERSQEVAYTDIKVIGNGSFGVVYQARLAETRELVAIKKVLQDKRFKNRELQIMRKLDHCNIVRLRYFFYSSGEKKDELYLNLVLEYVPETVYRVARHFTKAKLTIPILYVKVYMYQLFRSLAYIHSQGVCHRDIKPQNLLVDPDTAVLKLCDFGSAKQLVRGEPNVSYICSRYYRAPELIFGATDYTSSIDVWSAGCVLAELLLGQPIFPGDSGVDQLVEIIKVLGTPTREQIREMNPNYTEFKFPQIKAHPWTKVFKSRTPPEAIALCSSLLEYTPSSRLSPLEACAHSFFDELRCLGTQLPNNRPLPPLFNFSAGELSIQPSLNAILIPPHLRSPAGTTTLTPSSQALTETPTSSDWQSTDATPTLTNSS
assay_text: GSK3alpha (h)
run_parameters: read-out: Inhibition GSK3alpha (h)
property_measured: inhibition at 10 µM (%)
Write it as a number; the unit % goes unstated.

Illustrative cases are given below, each with its answer.
{"columns": ["mol", "target", "unit_of_measure", "inhibition at 10 µM"],
 "data": [
  ["O=C(OC(C(F)(F)F)C(F)(F)F)N1CC2(CC(CC3=C4C=CC=[N+]4[B-](F)(F)n4cccc43)C2)C1", "GSK3alpha (h) (Homo sapiens)", "%", -3.4],
  ["O=C1CO[C@H]2CCN(C(=O)N3CC4(CC(CC5=C6C=CC(c7ccc[nH]7)=[N+]6[B-](F)(F)n6cccc65)C4)C3)C[C@H]2N1", "GSK3alpha (h) (Homo sapiens)", "%", -24.8]
]}

Input: So what does the record say about inhibition at 10 µM for O=C(N1CC2(CC(CC3=C4C=CC=[N+]4[B-](F)(F)n4cccc43)C2)C1)N1CC2(CC(n3cnc(C4CC4)n3)C2)C1 ?
Output: -1.8

Input: // returns reported inhibition at 10 µM for input O=C(OC(C(F)(F)F)C(F)(F)F)N1CC2(CC(CC3=C4C=CC(c5ccc[nH]5)=[N+]4[B-](F)(F)n4cccc43)C2)C1
Output: -5.8

Input: Would you mind telling me what inhibition at 10 µM value was observed for O=C(O[C@H](CO)C(F)(F)F)N1CC2(CC(CC3=C4C=CC=[N+]4[B-](F)(F)n4cccc43)C2)C1 ?
Output: 0.3

###

target: Abl kinase (h) (Homo sapiens, UniProt P00519)
Sequence (P00519 whole entry): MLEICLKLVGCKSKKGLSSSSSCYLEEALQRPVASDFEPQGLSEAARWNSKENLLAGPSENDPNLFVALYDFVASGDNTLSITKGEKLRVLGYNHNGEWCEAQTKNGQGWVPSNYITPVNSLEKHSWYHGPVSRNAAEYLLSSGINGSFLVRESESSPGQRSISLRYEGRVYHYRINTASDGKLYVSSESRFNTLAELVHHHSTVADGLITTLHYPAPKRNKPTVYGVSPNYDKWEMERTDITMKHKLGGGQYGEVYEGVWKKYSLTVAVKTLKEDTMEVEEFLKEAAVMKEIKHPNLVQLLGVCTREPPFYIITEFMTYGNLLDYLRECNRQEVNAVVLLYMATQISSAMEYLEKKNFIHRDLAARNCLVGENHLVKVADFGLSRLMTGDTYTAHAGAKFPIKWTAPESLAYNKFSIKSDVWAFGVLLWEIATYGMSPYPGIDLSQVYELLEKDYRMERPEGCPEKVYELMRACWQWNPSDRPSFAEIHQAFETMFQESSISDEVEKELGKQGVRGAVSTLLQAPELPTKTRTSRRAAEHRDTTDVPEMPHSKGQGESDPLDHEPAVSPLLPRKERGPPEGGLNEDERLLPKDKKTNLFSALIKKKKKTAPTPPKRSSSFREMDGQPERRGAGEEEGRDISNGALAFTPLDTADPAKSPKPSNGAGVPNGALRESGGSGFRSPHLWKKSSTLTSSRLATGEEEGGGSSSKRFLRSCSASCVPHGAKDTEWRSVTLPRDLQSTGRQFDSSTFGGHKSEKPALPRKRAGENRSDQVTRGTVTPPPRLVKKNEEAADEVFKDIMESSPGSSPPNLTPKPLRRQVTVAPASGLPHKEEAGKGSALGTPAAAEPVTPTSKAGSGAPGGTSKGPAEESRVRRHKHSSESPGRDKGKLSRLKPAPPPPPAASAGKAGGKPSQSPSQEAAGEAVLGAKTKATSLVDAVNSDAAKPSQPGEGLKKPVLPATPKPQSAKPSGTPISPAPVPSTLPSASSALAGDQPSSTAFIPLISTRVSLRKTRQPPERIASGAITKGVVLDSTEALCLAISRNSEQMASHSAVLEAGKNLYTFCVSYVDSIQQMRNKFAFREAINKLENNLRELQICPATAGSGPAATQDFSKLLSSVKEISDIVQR
assay_text: Abl kinase (h)
run_parameters: read-out: Inhibition Abl kinase (h)
Recorded inhibition at 10 µM, one value per entry.
Express the result in % but write the number alone.

Input: Form field - read-out: inhibition at 10 µM; system: Abl kinase (h) (Homo sapiens, UniProt P00519); submitted item: O=C(OC(C(F)(F)F)C(F)(F)F)N1CC2(CC(CC3=C4C=CC=[N+]4[B-](F)(F)n4cccc43)C2)C1
Output: -10.5

Input: Checklist item: inhibition at 10 µM tested on Abl kinase (h) (Homo sapiens, UniProt P00519), entry O=C(N1CC2(CC(CC3=C4C=CC=[N+]4[B-](F)(F)n4cccc43)C2)C1)N1CC2(CC(n3cnc(C4CC4)n3)C2)C1 , value?
Output: 25.6

Input: Recall the recorded inhibition at 10 µM for O=C1CO[C@H]2CCN(C(=O)N3CC4(CC(CC5=C6C=CC(c7ccc[nH]7)=[N+]6[B-](F)(F)n6cccc65)C4)C3)C[C@H]2N1 with Abl kinase (h) (Homo sapiens, UniProt P00519) and state it.
Output: -53.1

Input: Query for Abl kinase (h) (Homo sapiens, UniProt P00519): what inhibition at 10 µM does the record show for O=C(OC(C(F)(F)F)C(F)(F)F)N1CC2(CC(CC3=C4C=CC(c5ccc[nH]5)=[N+]4[B-](F)(F)n4cccc43)C2)C1 ?
Output: -2.9

Input: Item O=C(O[C@H](CO)C(F)(F)F)N1CC2(CC(CC3=C4C=CC=[N+]4[B-](F)(F)n4cccc43)C2)C1 with Abl kinase (h) (Homo sapiens, UniProt P00519) - inhibition at 10 µM?
Output: -1.9

###

target: PPARgamma (h) (Homo sapiens, UniProt P37231)
Sequence (P37231 whole entry): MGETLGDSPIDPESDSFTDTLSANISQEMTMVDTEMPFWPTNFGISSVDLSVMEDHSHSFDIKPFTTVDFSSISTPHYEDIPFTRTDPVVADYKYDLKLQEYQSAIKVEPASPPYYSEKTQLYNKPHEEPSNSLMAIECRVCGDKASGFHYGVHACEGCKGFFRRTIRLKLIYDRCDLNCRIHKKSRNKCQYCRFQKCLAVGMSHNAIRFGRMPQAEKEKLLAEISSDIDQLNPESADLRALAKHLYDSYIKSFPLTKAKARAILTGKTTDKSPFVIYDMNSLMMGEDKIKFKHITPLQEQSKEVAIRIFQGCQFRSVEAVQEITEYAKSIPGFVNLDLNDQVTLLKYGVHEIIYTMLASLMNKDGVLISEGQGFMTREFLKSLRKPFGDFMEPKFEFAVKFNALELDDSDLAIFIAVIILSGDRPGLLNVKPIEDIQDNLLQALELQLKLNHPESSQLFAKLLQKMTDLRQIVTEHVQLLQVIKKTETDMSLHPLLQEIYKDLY
assay_text: PPARgamma (h) (agonist radioligand)
run_parameters: read-out: Inhibition PPARgamma (h) (agonist radioligand)
Listed next: entries and their corresponding inhibition at 10 µM.
Provide only the numeric value, understood in %.

{"columns": ["mol", "inhibition at 10 µM [%]"],
 "data": [
  ["O=C1CO[C@H]2CCN(C(=O)N3CC4(CC(CC5=C6C=CC(c7ccc[nH]7)=[N+]6[B-](F)(F)n6cccc65)C4)C3)C[C@H]2N1", 20],
  ["O=C(OC(C(F)(F)F)C(F)(F)F)N1CC2(CC(CC3=C4C=CC=[N+]4[B-](F)(F)n4cccc43)C2)C1", 56.3],
  ["O=C(OC(C(F)(F)F)C(F)(F)F)N1CC2(CC(CC3=C4C=CC(c5ccc[nH]5)=[N+]4[B-](F)(F)n4cccc43)C2)C1", 20],
  ["O=C(O[C@H](CO)C(F)(F)F)N1CC2(CC(CC3=C4C=CC=[N+]4[B-](F)(F)n4cccc43)C2)C1", 74.3]
]}

# input for lookup
Input: Please report the recorded inhibition at 10 µM for O=C(N1CC2(CC(CC3=C4C=CC=[N+]4[B-](F)(F)n4cccc43)C2)C1)N1CC2(CC(n3cnc(C4CC4)n3)C2)C1 .
Output: 5.6

###

target: UniProt:P35348
Sequence (P35348 whole entry): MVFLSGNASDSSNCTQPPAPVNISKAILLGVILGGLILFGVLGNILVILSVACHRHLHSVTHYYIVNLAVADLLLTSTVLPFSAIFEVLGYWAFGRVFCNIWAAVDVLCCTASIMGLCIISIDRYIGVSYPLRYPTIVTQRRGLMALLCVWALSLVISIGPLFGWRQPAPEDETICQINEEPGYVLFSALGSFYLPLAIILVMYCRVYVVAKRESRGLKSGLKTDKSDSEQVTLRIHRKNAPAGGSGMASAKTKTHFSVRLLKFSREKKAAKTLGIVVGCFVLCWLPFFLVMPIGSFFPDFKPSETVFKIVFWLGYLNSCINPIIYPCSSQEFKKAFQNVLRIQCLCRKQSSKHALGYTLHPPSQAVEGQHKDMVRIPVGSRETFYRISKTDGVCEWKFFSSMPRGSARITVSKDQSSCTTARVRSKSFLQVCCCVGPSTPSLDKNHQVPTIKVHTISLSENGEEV
assay_text: alpha1A (h) (antagonist radioligand)
run_parameters: read-out: Inhibition alpha1A (h) (antagonist radioligand)
property_measured: inhibition at 10 µM
Respond with a number, then the unit of measure.

Below, each entry is followed by its recorded inhibition at 10 µM result.
{"columns": ["mol", "inhibition at 10 µM"],
 "data": [
  ["O=C(OC(C(F)(F)F)C(F)(F)F)N1CC2(CC(CC3=C4C=CC(c5ccc[nH]5)=[N+]4[B-](F)(F)n4cccc43)C2)C1", "-3.4%"],
  ["O=C(N1CC2(CC(CC3=C4C=CC=[N+]4[B-](F)(F)n4cccc43)C2)C1)N1CC2(CC(n3cnc(C4CC4)n3)C2)C1", "2.1%"],
  ["O=C(O[C@H](CO)C(F)(F)F)N1CC2(CC(CC3=C4C=CC=[N+]4[B-](F)(F)n4cccc43)C2)C1", "7.6%"],
  ["O=C1CO[C@H]2CCN(C(=O)N3CC4(CC(CC5=C6C=CC(c7ccc[nH]7)=[N+]6[B-](F)(F)n6cccc65)C4)C3)C[C@H]2N1", "45.5%"]
]}

Input: If you can, please state the reported inhibition at 10 µM value of O=C(OC(C(F)(F)F)C(F)(F)F)N1CC2(CC(CC3=C4C=CC=[N+]4[B-](F)(F)n4cccc43)C2)C1 .
Output: -4.6%

###

target: xanthine oxidase/ superoxide O2- scavenging (Bos taurus, UniProt P80457)
Sequence (P80457 whole entry): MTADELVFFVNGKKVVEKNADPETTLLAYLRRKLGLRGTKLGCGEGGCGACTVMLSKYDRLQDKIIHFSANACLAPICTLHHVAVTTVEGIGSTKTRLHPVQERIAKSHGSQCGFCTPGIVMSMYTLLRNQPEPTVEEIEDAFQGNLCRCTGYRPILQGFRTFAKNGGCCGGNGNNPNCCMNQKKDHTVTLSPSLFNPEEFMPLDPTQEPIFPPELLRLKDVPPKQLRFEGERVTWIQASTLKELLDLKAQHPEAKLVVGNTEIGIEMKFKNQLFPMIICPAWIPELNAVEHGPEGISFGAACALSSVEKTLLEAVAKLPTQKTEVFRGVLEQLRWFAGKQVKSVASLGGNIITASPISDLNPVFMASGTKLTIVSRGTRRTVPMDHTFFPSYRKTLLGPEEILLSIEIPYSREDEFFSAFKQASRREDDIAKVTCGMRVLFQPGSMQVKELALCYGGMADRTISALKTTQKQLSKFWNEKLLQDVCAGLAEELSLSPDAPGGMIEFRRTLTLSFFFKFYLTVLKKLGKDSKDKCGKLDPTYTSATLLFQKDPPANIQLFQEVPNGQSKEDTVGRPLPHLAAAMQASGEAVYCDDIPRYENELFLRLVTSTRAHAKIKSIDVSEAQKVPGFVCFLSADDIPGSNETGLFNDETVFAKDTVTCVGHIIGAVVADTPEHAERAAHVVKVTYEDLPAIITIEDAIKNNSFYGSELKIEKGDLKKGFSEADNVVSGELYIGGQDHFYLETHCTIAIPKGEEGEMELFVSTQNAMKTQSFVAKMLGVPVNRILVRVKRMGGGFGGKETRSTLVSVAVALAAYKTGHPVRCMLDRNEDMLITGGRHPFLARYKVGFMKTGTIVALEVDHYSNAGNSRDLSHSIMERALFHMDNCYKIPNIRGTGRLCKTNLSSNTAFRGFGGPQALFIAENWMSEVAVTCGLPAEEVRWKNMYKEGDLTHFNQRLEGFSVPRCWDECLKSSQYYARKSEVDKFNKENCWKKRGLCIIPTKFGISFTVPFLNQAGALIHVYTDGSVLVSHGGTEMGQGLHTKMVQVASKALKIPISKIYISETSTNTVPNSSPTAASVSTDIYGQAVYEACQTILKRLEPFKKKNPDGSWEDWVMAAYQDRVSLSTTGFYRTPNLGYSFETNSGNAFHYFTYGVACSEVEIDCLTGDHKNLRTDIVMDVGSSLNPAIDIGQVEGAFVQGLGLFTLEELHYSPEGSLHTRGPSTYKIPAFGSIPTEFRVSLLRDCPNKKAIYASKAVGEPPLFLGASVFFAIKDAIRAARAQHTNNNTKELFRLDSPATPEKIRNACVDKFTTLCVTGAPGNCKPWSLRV
assay_text: xanthine oxidase/ superoxide O2- scavenging
run_parameters: read-out: Inhibition xanthine oxidase/ superoxide O2- scavenging
inhibition at 10 µM values, listed per item

The following compounds have reported results that may help.
{"columns": ["mol", "inhibition at 10 µM"],
 "data": [
  ["O=C(N1CC2(CC(CC3=C4C=CC=[N+]4[B-](F)(F)n4cccc43)C2)C1)N1CC2(CC(n3cnc(C4CC4)n3)C2)C1", "-16.6%"],
  ["O=C1CO[C@H]2CCN(C(=O)N3CC4(CC(CC5=C6C=CC(c7ccc[nH]7)=[N+]6[B-](F)(F)n6cccc65)C4)C3)C[C@H]2N1", "24.1%"],
  ["O=C(OC(C(F)(F)F)C(F)(F)F)N1CC2(CC(CC3=C4C=CC(c5ccc[nH]5)=[N+]4[B-](F)(F)n4cccc43)C2)C1", "7.8%"],
  ["O=C(O[C@H](CO)C(F)(F)F)N1CC2(CC(CC3=C4C=CC=[N+]4[B-](F)(F)n4cccc43)C2)C1", "-29.7%"]
]}

As a next step, examine the compound that follows.
Input: Report inhibition at 10 µM for O=C(OC(C(F)(F)F)C(F)(F)F)N1CC2(CC(CC3=C4C=CC=[N+]4[B-](F)(F)n4cccc43)C2)C1 please.
Output: 1.8%

###

target: MAGL (Homo sapiens)
Sequence (Q99685 whole entry): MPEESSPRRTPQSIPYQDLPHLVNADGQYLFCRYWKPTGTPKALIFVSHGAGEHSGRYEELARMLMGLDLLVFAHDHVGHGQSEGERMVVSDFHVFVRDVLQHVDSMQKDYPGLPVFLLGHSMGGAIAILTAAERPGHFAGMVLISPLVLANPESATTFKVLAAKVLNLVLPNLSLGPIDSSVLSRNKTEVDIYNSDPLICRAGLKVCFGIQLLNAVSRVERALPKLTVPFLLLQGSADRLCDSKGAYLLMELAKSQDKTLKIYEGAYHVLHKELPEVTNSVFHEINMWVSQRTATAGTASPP
assay_text: Native MS (RapidFire) 2-AG substrate assay, purified human MAGL
Format: biochemical
run_parameters: SI Table 1; read-out: IC50 against purified MAGL ± SEM, Human
property_measured: pIC50
// scale note: pIC50 = -log10(conc_M); give the bare number

Input: Which pIC50 reading was recorded for the compound O=C1COc2ccc(C(=O)N3CC4(CC(CC5=C6C=CC=[N+]6[B-](F)(F)n6cccc65)C4)C3)cc2N1 ?
Output: 8.12

Input: Entry under review: O=C1CO[C@H]2CCN(C(=O)N3CCC4(CC3)CC(OC3=C5C=CC=[N+]5[B-](F)(F)n5cccc53)C4)C[C@H]2N1 . Reported pIC50?
Output: 7.35

Input: I'd like to know its pIC50. The compound in question is Cc1ccc2oc(N3CCN(C(=O)N4CC5(CC(CC6=C7C=CC=[N+]7[B-](F)(F)n7cccc76)C5)C4)CC3)nc2n1
Output: 7.77

Input: What does the record list as pIC50 for O=C1CO[C@H]2CCN(C(=O)N3CC4(CCC(CC5=C6C=CC=[N+]6[B-](F)(F)n6cccc65)CC4)C3)C[C@H]2N1 ?
Output: 8.63

Input: Given the compound O=C1CO[C@H]2CCN(C(=O)N3C[C@@H]4[C@@H](COC5=C6C=CC=[N+]6[B-](F)(F)n6cccc65)[C@@H]4C3)C[C@H]2N1 , what is its reported pIC50?
Output: 6.30

Input: Need pIC50 of O=C1NC2(CO1)CN(C(=O)N1CC3(CC(CC4=C5C=CC=[N+]5[B-](F)(F)n5cccc54)C3)C1)C2 , thanks.
Output: 8.90

Input: GET /values?readout=pIC50&item= O=C1CO[C@H]2CCN(C(=O)N3CC4(CCC(OC5=C6C=CC=[N+]6[B-](F)(F)n6cccc65)CC4)C3)C[C@H]2N1
Output: 8.42

Input: Recorded pIC50 for O=C1CO[C@H]2CCN(C(=O)N3CC4(CC(CC5=C6C=CC(c7ccccc7)=[N+]6[B-](F)(F)n6cccc65)C4)C3)C[C@H]2N1 , please?
Output: 9.18

Input: Sample O=C1CO[C@H]2CCN(C(=O)N3CCC(=CC4=C5C=CC=[N+]5[B-](F)(F)n5cccc54)CC3)C[C@H]2N1 — what was its pIC50?
Output: 5.77

These measurements were taken from paper PMC11951083.
